molecular target: FAP-expressing human WI-38 fibroblasts (Homo sapiens, UniProt Q12884); construct: FAP-expressing human WI-38 fibroblasts (ECACC) were cultured in EMEM; host or cells: WI-38 human fibroblasts; assay: Competitive FACS binding assay
Sequence (Q12884 whole entry): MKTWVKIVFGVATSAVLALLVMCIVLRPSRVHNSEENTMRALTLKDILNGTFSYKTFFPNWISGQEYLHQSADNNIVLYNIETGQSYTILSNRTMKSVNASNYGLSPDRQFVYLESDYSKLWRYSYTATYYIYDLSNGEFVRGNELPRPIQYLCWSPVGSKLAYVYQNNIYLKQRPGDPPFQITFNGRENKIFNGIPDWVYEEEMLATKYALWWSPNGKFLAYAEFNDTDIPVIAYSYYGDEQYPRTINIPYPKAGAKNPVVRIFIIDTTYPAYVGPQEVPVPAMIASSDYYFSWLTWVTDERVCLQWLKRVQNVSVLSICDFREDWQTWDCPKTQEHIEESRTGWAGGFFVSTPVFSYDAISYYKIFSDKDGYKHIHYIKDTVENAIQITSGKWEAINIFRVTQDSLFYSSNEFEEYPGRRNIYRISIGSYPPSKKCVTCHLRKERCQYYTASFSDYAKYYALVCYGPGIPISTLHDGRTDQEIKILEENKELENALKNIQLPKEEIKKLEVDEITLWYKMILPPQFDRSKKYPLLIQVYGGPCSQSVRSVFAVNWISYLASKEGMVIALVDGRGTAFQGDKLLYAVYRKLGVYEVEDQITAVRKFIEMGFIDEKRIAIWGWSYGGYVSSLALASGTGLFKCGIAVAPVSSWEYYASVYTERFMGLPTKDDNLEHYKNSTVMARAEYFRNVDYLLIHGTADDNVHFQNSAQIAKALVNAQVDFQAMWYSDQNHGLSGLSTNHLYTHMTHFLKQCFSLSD
Numbered stars: 1 amine (or outer) side, 2 acyl side, 3 side chain; on linkers, the order of the positions; unused ones are H or OH. Bridge positions count the residues as written; N and C are the ends. Square brackets hold non-standard residues; d marks the D form. Peptide text beside a SMILES is read from it. * marks the point of attachment. ξ: configuration not given here. TBMB(SCH2CH2NH-DOTA) = O=C(O)CN1CCN(CC(=O)O)CCN(CC(=O)NCCSCc2cc(C[*:1])cc(C[*:2])c2)CCN(CC(=O)O)CC1; X13 = O=C(O)CN1CCN(CC(=O)O)CCN(CC(=O)N2CCN(Cc3cc(C[*:1])cc(C[*:2])c3)CC2)CCN(CC(=O)O)CC1; X11 = O=C(O)CN1CCN(CC(=O)O)CCN(C(CCC(=O)NCCSCc2cc(C[*:1])cc(C[*:2])c2)C(=O)O)CC1; X1 = NCCNCC(CNCCN)C(=O)N1CCN(CC(=O)NCCCOCCOCCOCCCN*)CC1; 1Nal = N[C@@H](Cc1cccc2ccccc12)C(=O)O; mXylylene = c1cc(C[*:1])cc(C[*:2])c1; PEG6 = NCCOCCOCCOCCOCCOCCOCCC(=O)O; Suc = O=C(CCC(=O)[*:2])[*:1]; Nle = CCCC[C@H](N)C(=O)O; X2 = NCCNCC(CNCCN)C(=O)*; Hexanoyl = CCCCCC(=O)*; Nlys = NCCCCNCC(=O)O; ξC = NC(CS)C(=O)O; βAla = NCCC(=O)O
metric: IC50

Below, each entry is followed by its recorded IC50 result.
CCCCNC(=O)N[C@H]1CSCc2cc(CSCCNC(=O)C(CNCCN)CNCCN)cc(c2)CSC[C@@H](C(=O)O)NC(=O)[C@H](Cc2ccccc2)NC(=O)[C@H](CCC(N)=O)NC(=O)[C@H]([C@@H](C)O)NC(=O)[C@@H]2CCCN2C(=O)[C@@H]2CCCN2C1=O [3BP-4534] ... < 0.01 µM
CCCCCC(=O)N[C@H]1CSCc2cc(cc(CN3CCN(C(=O)CN4CCN(CC(=O)O)CCN(CC(=O)O)CCN(CC(=O)O)CC4)CC3)c2)CSC[C@@H](C(=O)O)NC(=O)[C@H](Cc2ccccc2)NC(=O)[C@H](CCC(N)=O)NC(=O)[C@H]([C@@H](C)O)NC(=O)[C@@H]2CCCN2C(=O)[C@@H]2CCCN2C1=O [3BP-3555] ... 0.01 to 0.0794 µM
CCCCCC(=O)N[C@H]1CSCc2cc(cc(CN3CCN(C(=O)CN4CCN(CC(=O)O)CCN(CC(=O)O)CCN(CC(=O)O)CC4)CC3)c2)CSC[C@@H](C(=O)N[C@@H](CC(=O)O)C(N)=O)NC(=O)[C@H]([C@@H](C)O)NC(=O)[C@@H]2CCCN2C(=O)[C@H](Cc2ccccc2)NC(=O)[C@H](CCC(N)=O)NC(=O)[C@@H]2CCCN2C1=O [3BP-3857] (Hexanoyl-CPQFPTCD-NH2; linker 1-7 via X13) ... 0.1 to 0.794 µM
CCCCCC(=O)N[C@H]1CSCc2cc(CSCCNC(=O)CN3CCN(CC(=O)O)CCN(CC(=O)O)CCN(CC(=O)O)CC3)cc(c2)CSC[C@@H](C(=O)O)NC(=O)[C@H](Cc2cccc3ccccc23)NC(=O)[C@H](CCC(N)=O)NC(=O)[C@H]([C@@H](C)O)NC(=O)[C@@H]2CCCN2C(=O)[C@@H]2CCCN2C1=O [3BP-3650] (Hexanoyl-CPPTQ[1Nal]C-OH; linker 1-7 via TBMB(SCH2CH2NH-DOTA)) ... < 0.01 µM

Give measured IC50 for every item shown.
1. C[C@@H](O)[C@@H]1NC(=O)[C@@H]2CCCN2C(=O)[C@@H]2CCCN2C(=O)[C@@H](NC(=O)CCCCCN)CSCc2cccc(c2)CSC[C@@H](C(N)=O)NC(=O)[C@H](Cc2ccccc2)NC(=O)[C@H](CCC(N)=O)NC1=O [3BP-3759]
2. CCCC[C@H](NC(=O)CCOCCOCCOCCOCCOCCOCCNC(=O)C(CNCCN)CNCCN)C(=O)N[C@H]1CSCc2cncc(c2)CSCC(C(=O)O)NC(=O)[C@H](Cc2ccccc2)NC(=O)[C@H](CCC(N)=O)NC(=O)[C@H]([C@@H](C)O)NC(=O)[C@@H]2CCCN2C(=O)[C@@H]2CCCN2C1=O (stereo partly drawn) [3BP-4550]
3. CCOCCC(=O)N[C@H]1CSCc2cc(CSCCNC(=O)CN3CCN(CC(=O)O)CCN(CC(=O)O)CCN(CC(=O)O)CC3)cc(c2)CSC[C@@H](C(=O)O)NC(=O)[C@H](Cc2ccccc2)NC(=O)[C@H](CCC(N)=O)NC(=O)[C@H]([C@@H](C)O)NC(=O)[C@@H]2CCCN2C(=O)[C@@H]2CCCN2C1=O [3BP-3918]
4. CCCCCC(=O)N[C@H]1CSCc2cc(cc(CN3CCN(C(=O)CN4CCN(CC(=O)O)CCN(CC(=O)O)CCN(CC(=O)O)CC4)CC3)c2)CSC[C@@H](C(=O)N[C@@H](CC(=O)O)C(N)=O)NC(=O)[C@H](CCC(N)=O)NC(=O)[C@H](Cc2ccccc2)NC(=O)[C@@H]2CCCN2C(=O)[C@H]([C@@H](C)O)NC(=O)[C@@H]2CCCN2C1=O [3BP-3854] (Hexanoyl-CPTPFQCD-NH2; linker 1-7 via X13)
5. CCCCCC(=O)N[C@H]1CSCc2cccc(c2)CSC[C@@H](C(N)=O)NC(=O)[C@H](Cc2ccccc2)NC(=O)[C@H](CCC(N)=O)NC(=O)[C@H]([C@@H](C)O)NC(=O)[C@@H]2CCCN2C(=O)CN(CCCCN)C1=O [3BP-3747] (Hexanoyl-C[Nlys]PTQFC-NH2; linker 1-7 via mXylylene)

1: > 1 µM; 2: 0.1 to 0.794 µM; 3: < 0.01 µM; 4: > 1 µM; 5: > 1 µM

Batch lookup, IC50 per entry.
1. CCCCCC(=O)N[C@H]1CSCc2cc(CSCCNC(=O)CCC(C(=O)O)N3CCN(CC(=O)O)CCN(CC(=O)O)CC3)cc(c2)CSCC(C(=O)O)NC(=O)[C@H](Cc2ccccc2)NC(=O)[C@H](CCC(=O)O)NC(=O)[C@H]([C@@H](C)O)NC(=O)[C@@H]2CCCN2C(=O)[C@@H]2CCCN2C1=O (stereo partly drawn) [3BP-4695] (Hexanoyl-CPPTEF[ξC]-OH; linker 1-7 via X11)
2. CCCC[C@H](NC(=O)CCNC(=O)CCOCCOCCOCCOCCOCCOCCNC(=O)C(CNCCN)CNCCN)C(=O)N[C@H]1CSCc2cccc(c2)CSC[C@@H](C(=O)O)NC(=O)[C@H](Cc2ccccc2)NC(=O)[C@H](CCC(=O)O)NC(=O)[C@H]([C@@H](C)O)NC(=O)[C@@H]2CCCN2C(=O)[C@@H]2CCCN2C1=O [3BP-4779, N4Ac-PEG6-Bal-Nle-[C(3MeBn)-PPTEFC]-OH] ({X2-PEG6-βAla}-[Nle]CPPTEFC-OH; linker 2-8 via mXylylene)

1: 0.01 to 0.0794 µM; 2: 0.1 to 0.794 µM

What value of measured IC50 is listed for CCCC[C@H](NC(=O)CCC(=O)NCCCOCCOCCOCCCNC(=O)CN1CCN(C(=O)C(CNCCN)CNCCN)CC1)C(=O)N[C@H]1CSCc2cccc(c2)CSC[C@@H](C(=O)N[C@@H](CC(=O)O)C(=O)O)NC(=O)[C@H](Cc2ccccc2)NC(=O)[C@H](CCC(=O)O)NC(=O)[C@H]([C@@H](C)O)NC(=O)[C@@H]2CCCN2C(=O)[C@@H]2CCCN2C1=O [3BP-4785] ({X1-Suc}-[Nle]CPPTEFCD-OH; linker 2-8 via mXylylene) ?
< 0.01 µM
